Recorded values, source paper PMC8979682.

# procedure.details: ABTS scavenging activity
# Assay type: biochemical
# protocol.conditions: 500 µg/ml
# Experimental: For the determination of the antioxidant activity of the synthesized compounds, the previously reported method for ABTS scavenging activity was used with slight modification. The stock solution of 2.4 mM of potassium per sulfate solution and 7 mM ABTS solution was prepared by mixing them in equal volumes for 16 h. […] The absorbance was calculated utilizing a microplate reader at 734 nm.

compound: O=C1CCCCC1C1CC(=O)N(c2ccc(Br)cc2)C1=O (stereo not shown)
(%) ABTS inhibitions: 70.56 ± 1.06^∗∗∗ %
--
compound: O=C1O[C@H]([C@@H](O)CO)C(O)=C1O [Ascorbic acid, reference compound]
(%) ABTS inhibitions: 87.08 ± 0.47%
--
compound: O=C1CCCCC1C1CC(=O)N(Cc2ccccc2)C1=O (stereo not shown)
(%) ABTS inhibitions: 76.85 ± 2.24^∗∗∗ %
--
compound: O=C1CCCCC1C1CC(=O)N(c2ccccc2)C1=O (stereo not shown)
(%) ABTS inhibitions: 78.35 ± 0.23^∗∗∗ %
